B1: glmS ribozyme (parent)
chain: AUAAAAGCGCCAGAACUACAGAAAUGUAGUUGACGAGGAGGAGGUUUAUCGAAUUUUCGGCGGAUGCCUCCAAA

Variants of: B1
Test: self-cleavage kobs at 10000 uM GlcN6P; higher = faster cleavage; RNA array
Settings: with glucosamine-6-phosphate
This sample holds only a part of the variants without activity.
MEASURED_METRIC: self-cleavage kobs at 10000 uM GlcN6P

Query: self-cleavage kobs at 10000 uM GlcN6P; subject: AUAAAAGCGCCAGAACUACAGAAAUGUAGUUGACGAGGAGGAGGUUUAUCGAACUUUCGGCGGACGCCUCCAAA [U54C U65C]
0.000465 s⁻¹

Cool, now AUAAAAGCGCCAGAACUACAGAAAUGUAGUUGACGAGGAUGAGGUUUAUCGAAUUUUCGGCGAAUGCCUCCAAA [G40U G63A]
< 1e-05 s⁻¹

Cool, now AUAAAAGCGCCAGAACUACAGAAAUGUACUUGACGAGGAGGAGGUUUAUCGAAUUUUCGGCGGAUGCCUGCAAA [G29C C70G]
4e-05 s⁻¹
